// reported IC50 for each item listed
Molecular target: LPA1R (Homo sapiens, UniProt Q92633)
Sequence (Q92633 whole entry): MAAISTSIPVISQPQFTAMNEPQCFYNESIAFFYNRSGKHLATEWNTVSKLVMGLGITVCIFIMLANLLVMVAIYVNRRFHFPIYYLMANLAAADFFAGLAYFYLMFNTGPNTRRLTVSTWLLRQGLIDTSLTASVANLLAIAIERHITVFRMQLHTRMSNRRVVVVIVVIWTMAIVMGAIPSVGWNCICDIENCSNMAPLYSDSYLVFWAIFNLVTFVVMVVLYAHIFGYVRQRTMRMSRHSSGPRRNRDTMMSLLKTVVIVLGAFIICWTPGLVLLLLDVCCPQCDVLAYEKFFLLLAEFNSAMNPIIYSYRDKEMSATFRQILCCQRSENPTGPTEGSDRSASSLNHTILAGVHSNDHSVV
Assay: LPA1R Ca2+ flux functional assay (antagonist mode, FLIPR)
Conditions: inhibition of LPA-stimulated Ca2+ flux, LPA at EC80, LPA1R expressing cells (Millipore); read-out: LPA1 R Antagonist Activity
MEASUREMENT_NAME: IC50

Cc1noc(-c2ccc(C(=O)N[C@@H](Cc3ccccc3)C(=O)O)cc2)c1NC(=O)O[C@H](C)c1ccccc1 = > 50000 nM
Cc1noc(-c2ccc(C(=O)N[C@H](Cc3ccccc3Cl)C(=O)O)cc2)c1NC(=O)O[C@H](C)c1ccccc1Cl = < 300 nM
C[C@@H](OC(=O)Nc1ccnn1-c1ccc(-c2ccc(C3(C(=O)O)CC3)cc2)nc1)c1ccccc1 = < 300 nM
Cc1noc(-c2ccc(C(=O)N[C@H](C(=O)O)c3ccccc3)cc2)c1NC(=O)OC(C)c1ccccc1Cl (mixture of isomers) = > 50000 nM
Cc1nn(C)c(-c2ccc(-c3ccc(C4(C(=O)O)CC4)cc3)cc2)c1NC(=O)O[C@H](C)c1ccccc1 = 1000 to 50000 nM
Cc1noc(-c2ccc(C(=O)N[C@H](Cc3ccc(C(F)(F)F)cc3)C(=O)O)cc2)c1NC(=O)O[C@H](C)c1ccccc1Cl = < 300 nM
Cc1noc(-c2ccc(C(=O)N[C@H](Cc3ccccc3F)C(=O)O)cc2)c1NC(=O)O[C@H](C)c1ccccc1Cl = < 300 nM
CC(OC(=O)Nc1c(C#N)cnn1-c1ccc(-c2ccc(CC(=O)O)cc2)cc1)c1ccccc1Cl (centres unmarked) = 1000 to 50000 nM
Cc1noc(-c2ccc(COC(Cc3ccccc3)C(=O)O)cc2)c1NC(=O)O[C@H](C)c1ccccc1 (some centres unmarked) [Example 43] = 300 to 1000 nM
Cc1noc(-c2ccc(CN[C@H](Cc3ccc(C(F)(F)F)cc3)C(=O)O)cc2)c1NC(=O)O[C@H](C)c1ccccc1Cl = < 300 nM
Cc1nn(C)c(-c2ccc(C(=O)N[C@H](Cc3ccc(F)cc3)C(=O)O)cc2)c1NC(=O)O[C@H](C)c1ccccc1 = > 50000 nM
Cc1noc(-c2ccc(COC(Cc3ccc(Cl)cc3)C(=O)O)cc2)c1OC(=O)O[C@H](C)c1ccccc1 (mixture of isomers) = < 300 nM
Cc1c(NC(=O)O[C@H](C)c2ccccc2)c(-c2ccc(-c3ccc(C4(C(=O)O)CC4)cc3)cc2)nn1C = 300 to 1000 nM
Cc1cc(C2(C(=O)O)CC2)ccc1-c1ccc(-n2ncc(F)c2NC(=O)O[C@H](C)c2ccccc2Cl)cc1 = < 300 nM

* * *

// reported IC50 for each item listed
Biological target: UniProt Q92633
Experiment: LPA1R Ca2+ flux functional assay (antagonist mode, FLIPR)
Conditions: inhibition of LPA-stimulated Ca2+ flux, LPA at EC80, LPA1R expressing cells (Millipore); read-out: LPA1 R Antagonist Activity
MEASUREMENT_NAME: IC50

Cc1noc(-c2ccc(C(=O)NC(Cc3ccccc3)C(=O)O)cc2)c1NC(=O)OC(C)c1ccccc1Cl (stereo not shown) = 0.3 to 1 µM
Cc1noc(-c2ccc(C(=O)N[C@H](CC3CC3)C(=O)O)cc2)c1NC(=O)O[C@H](C)c1ccccc1Cl = < 0.3 µM
Cc1noc(-c2ccc(CN[C@H](Cc3ccccc3Cl)C(=O)O)cc2)c1NC(=O)O[C@H](C)c1ccccc1 = < 0.3 µM
Cc1noc(-c2ccc(CN[C@H](Cc3ccc(Cl)cc3)C(=O)O)cc2)c1NC(=O)O[C@H](C)c1ccccc1 = < 0.3 µM
Cc1c(NC(=O)O[C@H](C)c2ccccc2)c(-c2ccc(C(=O)N[C@H](Cc3ccc(Cl)cc3)C(=O)O)cc2)nn1C = > 50 µM
Cc1nn(C)c(-c2ccc(C(=O)N[C@H](Cc3ccc(Cl)cc3)C(=O)O)cc2)c1NC(=O)O[C@H](C)c1ccccc1 = > 50 µM
Cc1noc(-c2ccc(CN[C@H](CC3CC3)C(=O)O)cc2)c1NC(=O)O[C@H](C)c1ccccc1 = < 0.3 µM

* * *

// reported pIC50 for each item listed
Target: LPA1R (Homo sapiens, UniProt Q92633)
Test: LPA1R Ca2+ flux functional assay (antagonist mode, FLIPR)
Details: inhibition of LPA-stimulated Ca2+ flux, LPA at EC80, LPA1R expressing cells (Millipore); read-out: LPA1 R Antagonist Activity
pIC50: −log10 of the molar value.
MEASUREMENT_NAME: pIC50

Cc1noc(-c2ccc(C(=O)N[C@H](Cc3ccc(F)cc3)C(=O)O)cc2)c1NC(=O)O[C@H](C)c1ccccc1Cl = > 6.52
Cc1noc(-c2ccc(C(=O)N[C@H](Cc3ccc(F)c(F)c3)C(=O)O)cc2)c1NC(=O)O[C@H](C)c1ccccc1Cl = > 6.52
Cc1noc(-c2ccc(COC(CC3CC3)C(=O)O)cc2)c1NC(=O)O[C@H](C)c1ccccc1 (mixture of isomers) = > 6.52
C[C@@H](OC(=O)Nc1c(F)cnn1-c1ccc(-c2ccc(C3(C(=O)O)CC3)cc2Cl)cc1)c1ccccc1Cl = > 6.52
Cc1c(NC(=O)O[C@H](C)c2ccccc2)c(-c2ccc(C(=O)N[C@H](Cc3ccc(F)cc3)C(=O)O)cc2)nn1C = < 4.30
Cc1noc(-c2ccc(C(=O)N[C@H](Cc3ccc(Br)cc3)C(=O)O)cc2)c1NC(=O)O[C@H](C)c1ccccc1Cl = > 6.52
C[C@@H](OC(=O)Nc1c(F)cnn1-c1ccc(-c2ccc(C3(C(=O)O)CC3)cc2)cc1)c1ccccc1Cl = > 6.52
